Parameter: pA2. Scope: all listed entries.
- TESTED SYSTEM: Vasopressin V1 receptor (Rattus norvegicus, UniProt P48974+P30560)
- PROTOCOL DETAILS: In vivo vasopressin V1-antagonistic activity was determined by measuring the blood pressure response in rats.
- Format: functional, organism-based
*1 amine or outer side, *2 acyl side, *3 side chain or, on linkers, in order; H or OH if unused. Where a SMILES comes first, the peptide text is derived from it. Bridges are numbered along the chain shown (N, C = ends). The star is where a group is joined. Ethylenediamine = C(CN[*:2])N[*:1]; X1 = O=C(CC1(S[*:2])CCCCC1)[*:1]; X2 = CC(C)(CC(=O)[*:1])S[*:2]; NHBu = CCCCN*
Please reply with the value in numeric form only.

COc1ccc(C[C@@H]2NC(=O)CC3(CCCCC3)SSC[C@@H](C(=O)N3CCC[C@H]3C(=O)N[C@@H](CCCN=C(N)N)C(=O)N[C@@H](Cc3ccc(O)cc3)C(N)=O)NC(=O)[C@H](CC(N)=O)NC(=O)[C@H](CCC(N)=O)NC(=O)[C@H](Cc3ccccc3)NC2=O)cc1 (Y(Me)FQNCPRY-NH2; linker N-5 via X1)
8.47

Prompt line: So what's the measured pA2 for this one? COc1ccc(C[C@@H]2NC(=O)CC(C)(C)SSC[C@@H](C(=O)N3CCC[C@H]3C(=O)N[C@@H](CCCN=C(N)N)C(=O)N[C@@H](C)C(N)=O)NC(=O)[C@H](CC(N)=O)NC(=O)[C@H](CCC(N)=O)NC(=O)[C@H](Cc3ccccc3)NC2=O)cc1 (Y(Me)FQNCPRA-NH2; linker N-5 via X2)
Response line: 8.16

Prompt line: Another compound to look at: COc1ccc(C[C@@H]2NC(=O)CC3(CCCCC3)SSC[C@@H](C(=O)N3CCC[C@H]3C(=O)N[C@@H](CCCN=C(N)N)C(=O)NCC(N)=O)NC(=O)[C@H](CC(N)=O)NC(=O)[C@H](CCC(N)=O)NC(=O)[C@H](Cc3ccccc3)NC2=O)cc1 (Y(Me)FQNCPRG-NH2; linker N-5 via X1)
Response line: 8.62

Prompt line: Another compound to check: COc1ccc(C[C@@H]2NC(=O)CC(C)(C)SSC[C@@H](C(=O)N3CCC[C@H]3C(=O)N[C@@H](CCCN=C(N)N)C(=O)N[C@H](C(N)=O)C(C)C)NC(=O)[C@H](CC(N)=O)NC(=O)[C@H](CCC(N)=O)NC(=O)[C@H](Cc3ccccc3)NC2=O)cc1 (Y(Me)FQNCPRV-NH2; linker N-5 via X2)
Response line: 8.05

Prompt line: Quick one: COc1ccc(C[C@@H]2NC(=O)CC3(CCCCC3)SSC[C@@H](C(=O)N3CCC[C@H]3C(=O)N[C@@H](CCCN=C(N)N)C(=O)NCCN)NC(=O)[C@H](CC(N)=O)NC(=O)[C@H](CCC(N)=O)NC(=O)[C@H](Cc3ccccc3)NC2=O)cc1 (Y(Me)FQNCPR-Ethylenediamine; linker N-5 via X1)
Response line: 8.75

Prompt line: Now give it for CCCCNC(=O)CNC(=O)[C@H](CCCN=C(N)N)NC(=O)[C@@H]1CCCN1C(=O)[C@@H]1CSSC2(CCCCC2)CC(=O)N[C@@H](Cc2ccc(OC)cc2)C(=O)N[C@@H](Cc2ccccc2)C(=O)N[C@@H](CCC(N)=O)C(=O)N[C@@H](CC(N)=O)C(=O)N1 (Y(Me)FQNCPRG-NHBu; linker N-5 via X1) too.
Response line: 8.44
